# Test system: WI-38
# assay_summary: Cytotoxicity against human WI38 cells assessed as decrease in cell viability after 72 hrs by WST8 assay
# Assay type: cell-based
# measurement_conditions: WI-38, 72 h
IC50 by entry:
Output spec: scalar in µM, unitless text.

A selection of reference data follows.
C=C1CCC[C@H]2[C@](C)(CC3=C(O)C(=O)C=C(OCCCC)C3=O)[C@@H](C)CC[C@]12C: 8.2
C=C1CCC[C@H]2[C@](C)(CC3=C(O)C(=O)C=C(OC)C3=O)[C@@H](C)CC[C@]12C: 9.7
O=c1[nH]cc(F)c(=O)[nH]1: 6.8

In: Which measured IC50 value corresponds to C=C1CCC[C@@H]2[C@@](CO)(Cc3cc(C(=O)OC)c(O)c(OC)c3O)[C@H](C)CC[C@@]12C ?
Out: 42.1

In: Which measured IC50 value corresponds to C=C1CCC[C@H]2[C@](C)(CC3=C(O)C(=O)C=C(NCCCSC)C3=O)[C@@H](C)CC[C@]12C ?
Out: 8.8

In: Which measured IC50 value corresponds to C=C1CCC[C@H]2[C@](C)(CC3=C(O)C(=O)C=C(NCC(C)CC)C3=O)[C@@H](C)CC[C@]12C (some centres undefined) ?
Out: 6.9
